Tested on: MCF7
protocol_notes: Cytotoxicity against human MCF7 cells expressing estrogen receptor assessed as LDH release at 10 uM
Assay type: functional
property: Activity

INSERT INTO results (compound, result) VALUES
  ('COc1ccc(C2CC(=O)N2c2cc(OC)c(OC)c(OC)c2)cc1 (stereo unspecified)', '1.5%'),
  ('COc1ccc(C2C(C)C(=O)N2c2cc(OC)c(OC)c(OC)c2)cc1O (stereo unspecified)', '15%'),
  ('COc1ccc(C2N(c3cc(OC)c(OC)c(OC)c3)C(=S)C2(C)C)cc1 (stereo unspecified)', '5.5%'),
  ('COc1ccc(/C=C\c2cc(OC)c(OC)c(OC)c2)cc1O [COMBRETASTATIN A4]', '5.6%'),
  ('COc1ccc(C2N(c3cc(OC)c(OC)c(OC)c3)C(=O)C2(C)C)cc1OC (stereo unspecified)', '14%'),
  ('COc1ccc(C2N(c3cc(OC)c(OC)c(OC)c3)C(=O)C2(C)C)cc1O (stereo unspecified)', '12%');
